# literature pull: 5-hydroxytryptamine receptor 2A (Homo sapiens) IC50

> print(dat)
                                inputsmiles  metric  valuereported
1          Cc1ccc(C2=NCCN=C(N3CCOCC3)C2)cc1    IC50         > 1 µM
2          CNC(=O)/C=C/c1cc(OC)c(OC)c(OC)c1    IC50        > 10 µM
3  CN(C)CCON/C(=C/C=C1C=CC(=O)C=C1)c1ccccc1F    IC50       0.001 µM

Look up IC50 for the entries below, preserving their order.
1. CCN(CC)C1=NCCN=C(c2ccc(C)cc2)C1
2. CCCCCCCCNC(=O)/C=C/c1cc(OC)c(OC)c(OC)c1
3. CCCCCCCCCCNC(=O)/C=C/c1cc(OC)c(OC)c(OC)c1
4. CCCCCCNC(=O)/C=C/c1cc(OC)c(OC)c(OC)c1
5. CCCCNC(=O)/C=C/c1cc(OC)c(OC)c(OC)c1

Outgoing:
1. > 1 µM
2. > 10 µM
3. 6.8 µM
4. > 10 µM
5. > 10 µM

Go through the items and report each one's IC50.
1. CCN(CC)C1=NCCN=C(c2ccccc2F)C1
2. C=CCNC(=O)/C=C/c1cc(OC)c(OC)c(OC)c1

Outgoing:
["> 1 µM", "> 10 µM"]
